assayed-target: VLA4 (Homo sapiens, UniProt P05556+P13612)
Construct: endogenous in cells
Sequence (P13612 34-1032): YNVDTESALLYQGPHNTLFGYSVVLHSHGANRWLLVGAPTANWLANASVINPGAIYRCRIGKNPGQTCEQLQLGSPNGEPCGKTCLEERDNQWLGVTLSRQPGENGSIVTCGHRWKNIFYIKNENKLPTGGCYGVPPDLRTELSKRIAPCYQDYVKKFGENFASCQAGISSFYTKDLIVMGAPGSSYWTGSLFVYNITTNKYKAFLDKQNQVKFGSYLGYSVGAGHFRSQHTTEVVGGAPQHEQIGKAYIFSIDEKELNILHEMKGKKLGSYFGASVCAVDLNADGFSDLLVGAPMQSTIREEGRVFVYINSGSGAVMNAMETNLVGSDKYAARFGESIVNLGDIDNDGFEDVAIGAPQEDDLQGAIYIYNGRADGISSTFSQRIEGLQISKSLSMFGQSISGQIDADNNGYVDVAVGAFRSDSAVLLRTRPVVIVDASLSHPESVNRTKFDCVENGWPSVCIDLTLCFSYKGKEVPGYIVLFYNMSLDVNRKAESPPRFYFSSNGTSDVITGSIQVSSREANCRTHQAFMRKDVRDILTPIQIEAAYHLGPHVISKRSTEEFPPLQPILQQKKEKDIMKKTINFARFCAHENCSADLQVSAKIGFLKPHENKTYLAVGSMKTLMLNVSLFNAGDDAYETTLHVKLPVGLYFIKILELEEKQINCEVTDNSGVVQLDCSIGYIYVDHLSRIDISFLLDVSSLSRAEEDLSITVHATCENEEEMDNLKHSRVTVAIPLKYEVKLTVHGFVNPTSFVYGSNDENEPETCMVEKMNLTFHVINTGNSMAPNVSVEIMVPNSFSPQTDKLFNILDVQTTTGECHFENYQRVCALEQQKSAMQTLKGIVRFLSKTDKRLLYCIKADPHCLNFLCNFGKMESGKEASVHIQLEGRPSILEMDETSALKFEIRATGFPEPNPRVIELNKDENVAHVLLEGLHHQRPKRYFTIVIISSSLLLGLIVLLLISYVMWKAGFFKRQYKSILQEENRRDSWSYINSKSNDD
Sequence (P05556 21-798): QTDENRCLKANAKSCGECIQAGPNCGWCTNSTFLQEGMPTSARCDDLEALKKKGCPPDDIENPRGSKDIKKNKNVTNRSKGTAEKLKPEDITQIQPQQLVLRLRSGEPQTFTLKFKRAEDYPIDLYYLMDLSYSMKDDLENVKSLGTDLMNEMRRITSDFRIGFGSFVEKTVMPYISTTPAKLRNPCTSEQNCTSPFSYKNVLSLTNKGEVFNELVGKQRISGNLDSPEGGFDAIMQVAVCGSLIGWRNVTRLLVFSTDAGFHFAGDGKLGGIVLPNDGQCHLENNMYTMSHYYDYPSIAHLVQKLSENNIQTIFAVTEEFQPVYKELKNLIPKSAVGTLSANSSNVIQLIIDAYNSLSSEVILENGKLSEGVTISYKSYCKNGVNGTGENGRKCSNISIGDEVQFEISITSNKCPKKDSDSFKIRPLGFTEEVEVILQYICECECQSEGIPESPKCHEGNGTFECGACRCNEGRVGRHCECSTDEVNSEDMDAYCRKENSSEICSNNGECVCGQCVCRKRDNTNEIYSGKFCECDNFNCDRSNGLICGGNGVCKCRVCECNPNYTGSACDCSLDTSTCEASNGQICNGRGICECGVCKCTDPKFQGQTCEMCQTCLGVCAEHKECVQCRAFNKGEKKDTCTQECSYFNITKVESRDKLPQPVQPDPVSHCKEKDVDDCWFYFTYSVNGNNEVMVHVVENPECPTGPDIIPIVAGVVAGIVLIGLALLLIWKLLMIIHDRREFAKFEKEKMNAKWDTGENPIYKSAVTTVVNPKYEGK
assay-method-text: Inhibition of VLA4-dependent adhesion to BSA-CS1 (fluorescently labelled Ramos cells)
details: binding of BCECF-labelled Ramos cells to CS1 peptide-coated wells, 2 mM MnCl2, 30 minutes at room temperature
Readings of IC50 for the listed compounds

Guide cases for IC50, answers given:
>  <compound>
CC(C)CNC(=O)C(CC(=O)O)NC(=O)C(CC(C)C)NC(=O)Cc1ccc(NC(=O)Nc2ccccc2)cc1 (stereo not shown)

>  <assayed-target>
VLA4 (Homo sapiens, UniProt P05556+P13612)

>  <IC50>
0.05 to 10 µM

$$$$
>  <compound>
CC(C)CC(NC(=O)Cc1ccc(NC(=O)Nc2ccccc2)cc1)C(=O)NC(CC(=O)O)c1ccc(F)c(F)c1 (stereo not shown)

>  <assayed-target>
VLA4 (Homo sapiens, UniProt P05556+P13612)

>  <IC50>
< 0.05 µM

$$$$
>  <compound>
Cc1ccc(NC(=O)Nc2ccc(CC(=O)NC(CC(C)C)C(=O)NC(CC(=O)O)c3ccc4c(c3)OCO4)cc2)cc1 (stereo not shown)

>  <assayed-target>
VLA4 (Homo sapiens, UniProt P05556+P13612)

>  <IC50>
0.05 to 10 µM

$$$$

Please examine the following record next.
In: Value lookup for IC50; key = CSCCC(NC(=O)Cc1ccc(NC(=O)Nc2ncccc2C)cc1)C(=O)NC(CC(=O)O)c1ccc2c(c1)OCO2 (stereo not shown)
Out: 0.05 to 10 µM

---

assayed-target: VLA4 (Homo sapiens, UniProt P05556+P13612)
Construct: endogenous in cells
assay-method-text: Inhibition of VLA4-dependent adhesion to BSA-CS1 (fluorescently labelled Ramos cells)
details: binding of BCECF-labelled Ramos cells to CS1 peptide-coated wells, 2 mM MnCl2, 30 minutes at room temperature
Listed next: entries and their corresponding IC50.

Some solved entries appear below for comparison.
>  <compound>
C=CCNC(=O)Nc1ccc(CC(=O)NC(CC(C)C)C(=O)NC(CC(=O)O)c2ccc3c(c2)OCO3)cc1 (centres unmarked)

>  <outcome-measure>
IC50

>  <value-measured>
50 to 10000 nM

$$$$
>  <compound>
CC(C)CC(NC(=O)Cc1ccc(NC(=O)c2ccc[nH]2)cc1)C(=O)NC(CC(=O)O)c1ccc2c(c1)OCO2 (centres unmarked)

>  <outcome-measure>
IC50

>  <value-measured>
50 to 10000 nM

$$$$
>  <compound>
C#CC(CC(=O)O)NC(=O)C(CC(C)C)NC(=O)Cc1ccc(NC(=O)Nc2ccccc2C)cc1 (centres unmarked)

>  <outcome-measure>
IC50

>  <value-measured>
< 50 nM

$$$$

In: Return reported IC50; argument: COc1ccc(C(CC(=O)O)NC(=O)C(CC(C)C)NC(=O)Cc2ccc(NC(=O)Nc3ccc(F)cc3)cc2)cc1OC (centres unmarked)
Out: 50 to 10000 nM

In: Another compound: COc1ccc(C(CC(=O)O)NC(=O)C(CC(C)C)NC(=O)Cc2ccc(NC(=O)Nc3ccccn3)cc2)cc1 (centres unmarked)
Out: < 50 nM

In: Entry to check: Cc1ccccc1NC(=O)Nc1ccc(CC(=O)NC(CSCCCO)C(=O)NC(CC(=O)O)c2ccc3c(c2)OCO3)cc1 (centres unmarked)
Out: < 50 nM

In: Input CC(C)CC(NC(=O)Cc1ccc(NC(=O)c2c[nH]c3ccccc23)cc1)C(=O)NC(CC(=O)O)c1ccc2c(c1)OCO2 (centres unmarked)
Out: 50 to 10000 nM

In: Okay, and Cc1ccccc1NC(=O)Nc1ccc(CC(=O)NC(CC(C)C)C(=O)NC(CC(=O)O)c2ccc3c(c2)CCO3)cc1 (centres unmarked) ?
Out: < 50 nM

In: Repeat with CC(C)CC(NC(=O)Cc1ccc(NC(=O)n2ccc3ccccc32)cc1)C(=O)NC(CC(=O)O)c1ccc2c(c1)OCO2 (centres unmarked)
Out: 50 to 10000 nM

In: Moving on to CC(C)CC(NC(=O)Nc1ccc([N+](=O)[O-])cc1)C(=O)NC(CC(=O)O)c1ccccc1 (centres unmarked)
Out: > 10000 nM

In: Try CC(C)CC(NC(=O)Cc1ccc(NC(=O)c2cc3ccccc3[nH]2)cc1)C(=O)NCCC(=O)O (centres unmarked) next.
Out: 50 to 10000 nM
